// provenance: ChEMBL document CHEMBL5046295

TARGET_OR_SYSTEM: Mu-type opioid receptor (Mus musculus)
Sequence (P42866 whole entry): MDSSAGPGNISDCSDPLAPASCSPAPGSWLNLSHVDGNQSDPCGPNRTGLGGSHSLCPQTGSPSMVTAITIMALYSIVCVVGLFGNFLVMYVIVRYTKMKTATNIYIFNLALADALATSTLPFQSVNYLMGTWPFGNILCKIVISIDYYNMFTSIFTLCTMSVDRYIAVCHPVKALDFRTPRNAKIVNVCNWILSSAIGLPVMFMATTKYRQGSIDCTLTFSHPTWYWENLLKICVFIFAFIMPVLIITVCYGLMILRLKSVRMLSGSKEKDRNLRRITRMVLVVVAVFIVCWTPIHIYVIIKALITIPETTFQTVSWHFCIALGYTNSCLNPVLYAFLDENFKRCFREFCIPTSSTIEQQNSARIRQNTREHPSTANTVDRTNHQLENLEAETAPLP
ASSAY_PROTOCOL: Partial agonist activity at mouse mu opioid receptor expressed in CHO cell membranes incubated for 1.5 hrs by [35S]GTPgammaS binding based liquid scintillation counting method
pEC50: −log10 of the molar value.
READOUT_NAME: pEC50

[
  {
    "TEST_SMILES": "O=C(CCc1ccoc1)N[C@@H]1CC[C@@]2(O)[C@H]3Cc4ccc(O)c5c4[C@@]2(CCN3CC2CC2)[C@H]1O5",
    "TARGET_OR_SYSTEM": "Mu-type opioid receptor (Mus musculus)",
    "READOUT_NAME": "pEC50",
    "RESULT": 9.20
  },
  {
    "TEST_SMILES": "O=C(Cc1ccco1)N[C@@H]1CC[C@@]2(O)[C@H]3Cc4ccc(O)c5c4[C@@]2(CCN3CC2CC2)[C@H]1O5",
    "TARGET_OR_SYSTEM": "Mu-type opioid receptor (Mus musculus)",
    "READOUT_NAME": "pEC50",
    "RESULT": 9.01
  },
  {
    "TEST_SMILES": "O=C(CCc1ccc[nH]1)N[C@@H]1CC[C@@]2(O)[C@H]3Cc4ccc(O)c5c4[C@@]2(CCN3CC2CC2)[C@H]1O5",
    "TARGET_OR_SYSTEM": "Mu-type opioid receptor (Mus musculus)",
    "READOUT_NAME": "pEC50",
    "RESULT": 8.91
  },
  {
    "TEST_SMILES": "O=C(CCc1cc[nH]c1)N[C@@H]1CC[C@@]2(O)[C@H]3Cc4ccc(O)c5c4[C@@]2(CCN3CC2CC2)[C@H]1O5",
    "TARGET_OR_SYSTEM": "Mu-type opioid receptor (Mus musculus)",
    "READOUT_NAME": "pEC50",
    "RESULT": 8.80
  }
]

---

TARGET_OR_SYSTEM: Kappa-type opioid receptor (Mus musculus)
ASSAY_PROTOCOL: biochemical
Description: Antagonist activity at mouse kappa opioid receptor expressed in CHO cell membranes assessed as reduction in U50,488H induced [35S]GTPgammaS binding incubated for 1.5 hrs by liquid scintillation counting method
pEC50: −log10 of the molar value.
Measured pEC50 accompanies every entry in the list below.

[
  {
    "TEST_SMILES": "O=C(Cc1ccco1)N[C@H]1CC[C@@]2(O)[C@H]3Cc4ccc(O)c5c4[C@@]2(CCN3CC2CC2)[C@H]1O5",
    "pEC50": 7.07
  },
  {
    "TEST_SMILES": "O=C(N[C@@H]1CC[C@@]2(O)[C@H]3Cc4ccc(O)c5c4[C@@]2(CCN3CC2CC2)[C@H]1O5)c1ccco1",
    "pEC50": 8.20
  },
  {
    "TEST_SMILES": "O=C(Cc1ccco1)N[C@@H]1CC[C@@]2(O)[C@H]3Cc4ccc(O)c5c4[C@@]2(CCN3CC2CC2)[C@H]1O5",
    "pEC50": 7.88
  }
]

---

TARGET_OR_SYSTEM: Mu-type opioid receptor (Mus musculus)
ASSAY_PROTOCOL: Partial agonist activity at mouse mu opioid receptor expressed in CHO cell membranes incubated for 1.5 hrs by [35S]GTPgammaS binding based liquid scintillation counting method
pEC50: −log10 of the molar value.
Threshold check on pEC50: at or above 8 gives True, strictly below gives False.

[
  {
    "TEST_SMILES": "O=C(N[C@@H]1CC[C@@]2(O)[C@H]3Cc4ccc(O)c5c4[C@@]2(CCN3CC2CC2)[C@H]1O5)c1ccoc1",
    "ASSIGNED_CLASS": "False"
  },
  {
    "TEST_SMILES": "O=C(Cc1cc[nH]c1)N[C@@H]1CC[C@@]2(O)[C@H]3Cc4ccc(O)c5c4[C@@]2(CCN3CC2CC2)[C@H]1O5",
    "ASSIGNED_CLASS": "True"
  },
  {
    "TEST_SMILES": "O=C(Cc1ccoc1)N[C@@H]1CC[C@@]2(O)[C@H]3Cc4ccc(O)c5c4[C@@]2(CCN3CC2CC2)[C@H]1O5",
    "ASSIGNED_CLASS": "True"
  },
  {
    "TEST_SMILES": "O=C(CCc1cc[nH]c1)N[C@H]1CC[C@@]2(O)[C@H]3Cc4ccc(O)c5c4[C@@]2(CCN3CC2CC2)[C@H]1O5",
    "ASSIGNED_CLASS": "True"
  },
  {
    "TEST_SMILES": "O=C(Cc1ccc[nH]1)N[C@@H]1CC[C@@]2(O)[C@H]3Cc4ccc(O)c5c4[C@@]2(CCN3CC2CC2)[C@H]1O5",
    "ASSIGNED_CLASS": "True"
  },
  {
    "TEST_SMILES": "O=C(Cc1ccsc1)N[C@@H]1CC[C@@]2(O)[C@H]3Cc4ccc(O)c5c4[C@@]2(CCN3CC2CC2)[C@H]1O5",
    "ASSIGNED_CLASS": "True"
  },
  {
    "TEST_SMILES": "O=C(Cc1ccc[nH]1)N[C@H]1CC[C@@]2(O)[C@H]3Cc4ccc(O)c5c4[C@@]2(CCN3CC2CC2)[C@H]1O5",
    "ASSIGNED_CLASS": "True"
  },
  {
    "TEST_SMILES": "O=C(Cc1cc[nH]c1)N[C@H]1CC[C@@]2(O)[C@H]3Cc4ccc(O)c5c4[C@@]2(CCN3CC2CC2)[C@H]1O5",
    "ASSIGNED_CLASS": "False"
  },
  {
    "TEST_SMILES": "O=C(N[C@@H]1CC[C@@]2(O)[C@H]3Cc4ccc(O)c5c4[C@@]2(CCN3CC2CC2)[C@H]1O5)c1cc[nH]c1",
    "ASSIGNED_CLASS": "True"
  },
  {
    "TEST_SMILES": "O=C(N[C@H]1CC[C@@]2(O)[C@H]3Cc4ccc(O)c5c4[C@@]2(CCN3CC2CC2)[C@H]1O5)c1cc[nH]c1",
    "ASSIGNED_CLASS": "True"
  },
  {
    "TEST_SMILES": "O=C(Cc1ccco1)N[C@H]1CC[C@@]2(O)[C@H]3Cc4ccc(O)c5c4[C@@]2(CCN3CC2CC2)[C@H]1O5",
    "ASSIGNED_CLASS": "True"
  },
  {
    "TEST_SMILES": "O=C(CCc1ccoc1)N[C@H]1CC[C@@]2(O)[C@H]3Cc4ccc(O)c5c4[C@@]2(CCN3CC2CC2)[C@H]1O5",
    "ASSIGNED_CLASS": "True"
  }
]

---

Test system: Mus musculus
ASSAY_PROTOCOL: Antinociceptive activity against Swiss Webster mouse model assessed as increase in tail withdrawal latency from warm water by measuring maximum possible effect at 10 mg/kg, sc measured after 20 min by warm water tail immersion assay
Format: functional, organism-based
The source made the active and inactive calls. No cut-off for these calls is given here.
READOUT_NAME: Activity

[
  {
    "TEST_SMILES": "O=C(N[C@H]1CC[C@@]2(O)[C@H]3Cc4ccc(O)c5c4[C@@]2(CCN3CC2CC2)[C@H]1O5)c1ccoc1",
    "RESULT": "Active"
  },
  {
    "TEST_SMILES": "O=C(Cc1ccc[nH]1)N[C@H]1CC[C@@]2(O)[C@H]3Cc4ccc(O)c5c4[C@@]2(CCN3CC2CC2)[C@H]1O5",
    "RESULT": "inactive"
  },
  {
    "TEST_SMILES": "O=C(N[C@H]1CC[C@@]2(O)[C@H]3Cc4ccc(O)c5c4[C@@]2(CCN3CC2CC2)[C@H]1O5)c1ccc[nH]1",
    "RESULT": "inactive"
  },
  {
    "TEST_SMILES": "O=C(Cc1ccc[nH]1)N[C@@H]1CC[C@@]2(O)[C@H]3Cc4ccc(O)c5c4[C@@]2(CCN3CC2CC2)[C@H]1O5",
    "RESULT": "Active"
  },
  {
    "TEST_SMILES": "O=C(N[C@H]1CC[C@@]2(O)[C@H]3Cc4ccc(O)c5c4[C@@]2(CCN3CC2CC2)[C@H]1O5)c1cccs1",
    "RESULT": "inactive"
  },
  {
    "TEST_SMILES": "O=C(N[C@H]1CC[C@@]2(O)[C@H]3Cc4ccc(O)c5c4[C@@]2(CCN3CC2CC2)[C@H]1O5)c1cc[nH]c1",
    "RESULT": "inactive"
  },
  {
    "TEST_SMILES": "O=C(N[C@@H]1CC[C@@]2(O)[C@H]3Cc4ccc(O)c5c4[C@@]2(CCN3CC2CC2)[C@H]1O5)c1ccc[nH]1",
    "RESULT": "inactive"
  }
]

---

TARGET_OR_SYSTEM: Kappa-type opioid receptor (Mus musculus, UniProt P33534)
Sequence (P33534 whole entry): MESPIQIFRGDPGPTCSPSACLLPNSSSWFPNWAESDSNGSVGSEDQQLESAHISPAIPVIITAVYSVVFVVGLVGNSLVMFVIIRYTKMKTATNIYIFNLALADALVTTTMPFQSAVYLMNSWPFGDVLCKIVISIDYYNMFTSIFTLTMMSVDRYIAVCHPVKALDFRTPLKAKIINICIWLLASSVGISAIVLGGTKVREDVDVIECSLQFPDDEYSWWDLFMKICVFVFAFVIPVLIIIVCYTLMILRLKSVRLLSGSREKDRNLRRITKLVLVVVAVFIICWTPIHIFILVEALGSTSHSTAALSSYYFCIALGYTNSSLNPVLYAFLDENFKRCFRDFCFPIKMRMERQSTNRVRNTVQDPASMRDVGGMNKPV
READOUT_NAME: Ki (nM)

[
  {
    "TEST_SMILES": "O=C(CCc1cc[nH]c1)N[C@H]1CC[C@@]2(O)[C@H]3Cc4ccc(O)c5c4[C@@]2(CCN3CC2CC2)[C@H]1O5",
    "RESULT": 0.59
  },
  {
    "TEST_SMILES": "O=C(CCc1cccs1)N[C@H]1CC[C@@]2(O)[C@H]3Cc4ccc(O)c5c4[C@@]2(CCN3CC2CC2)[C@H]1O5",
    "RESULT": 1.76
  },
  {
    "TEST_SMILES": "O=C(Cc1cc[nH]c1)N[C@@H]1CC[C@@]2(O)[C@H]3Cc4ccc(O)c5c4[C@@]2(CCN3CC2CC2)[C@H]1O5",
    "RESULT": 4.19
  },
  {
    "TEST_SMILES": "O=C(N[C@@H]1CC[C@@]2(O)[C@H]3Cc4ccc(O)c5c4[C@@]2(CCN3CC2CC2)[C@H]1O5)c1ccoc1",
    "RESULT": 29.4
  },
  {
    "TEST_SMILES": "O=C(Cc1ccco1)N[C@@H]1CC[C@@]2(O)[C@H]3Cc4ccc(O)c5c4[C@@]2(CCN3CC2CC2)[C@H]1O5",
    "RESULT": 3.38
  },
  {
    "TEST_SMILES": "O=C(Cc1ccsc1)N[C@H]1CC[C@@]2(O)[C@H]3Cc4ccc(O)c5c4[C@@]2(CCN3CC2CC2)[C@H]1O5",
    "RESULT": 0.65
  },
  {
    "TEST_SMILES": "O=C(Cc1ccsc1)N[C@@H]1CC[C@@]2(O)[C@H]3Cc4ccc(O)c5c4[C@@]2(CCN3CC2CC2)[C@H]1O5",
    "RESULT": 1.31
  },
  {
    "TEST_SMILES": "O=C(Cc1ccoc1)N[C@H]1CC[C@@]2(O)[C@H]3Cc4ccc(O)c5c4[C@@]2(CCN3CC2CC2)[C@H]1O5",
    "RESULT": 6.45
  },
  {
    "TEST_SMILES": "O=C(CCc1ccc[nH]1)N[C@@H]1CC[C@@]2(O)[C@H]3Cc4ccc(O)c5c4[C@@]2(CCN3CC2CC2)[C@H]1O5",
    "RESULT": 1.25
  },
  {
    "TEST_SMILES": "O=C(N[C@H]1CC[C@@]2(O)[C@H]3Cc4ccc(O)c5c4[C@@]2(CCN3CC2CC2)[C@H]1O5)c1cc[nH]c1",
    "RESULT": 2.78
  },
  {
    "TEST_SMILES": "O=C(N[C@H]1CC[C@@]2(O)[C@H]3Cc4ccc(O)c5c4[C@@]2(CCN3CC2CC2)[C@H]1O5)c1ccoc1",
    "RESULT": 2.14
  },
  {
    "TEST_SMILES": "O=C(Cc1ccc[nH]1)N[C@@H]1CC[C@@]2(O)[C@H]3Cc4ccc(O)c5c4[C@@]2(CCN3CC2CC2)[C@H]1O5",
    "RESULT": 1.35
  },
  {
    "TEST_SMILES": "O=C(Cc1ccco1)N[C@H]1CC[C@@]2(O)[C@H]3Cc4ccc(O)c5c4[C@@]2(CCN3CC2CC2)[C@H]1O5",
    "RESULT": 6.67
  },
  {
    "TEST_SMILES": "O=C(CCc1ccc[nH]1)N[C@H]1CC[C@@]2(O)[C@H]3Cc4ccc(O)c5c4[C@@]2(CCN3CC2CC2)[C@H]1O5",
    "RESULT": 0.54
  }
]
